molecular target: VASP-EVH1 (human VASP aa1-115, GST cleaved with thrombin) (human, UniProt P50552 1-115); assay: ITC
Sequence (P50552 1-115): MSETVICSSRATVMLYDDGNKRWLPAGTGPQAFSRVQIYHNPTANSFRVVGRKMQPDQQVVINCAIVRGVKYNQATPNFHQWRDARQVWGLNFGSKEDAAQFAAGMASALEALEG
pKd: −log10 of the molar value.

{"binder": "Ac-SEDNLPPPPAEFSYP-NH2 [15-mer WAVE2-derived peptide Ac-SEDNLPPPPAEFSYP-NH2]", "pKd": 3.60}
